test: chemical genetic growth profiling, strain panel (AID 1159580);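 note: tested at 20 µM; growth read once vehicle control cultures reached saturation at 30 °C; lower values mean less growth of the strain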; settings: S. cerevisiae deletion strains, growth OD, locus YLR357W, strain rsc2
Screen size: about 5,500 compounds; about 2,000 (36%) were called active. Roughly 18% stayed inconclusive and do not appear here. Cut-off read from the data, not from the text of the source: active = normalized growth mostly below about 0.91 (no sharp cut-off); inconclusive = no clear call, values can overlap the other calls; inactive = mostly above about 0.92. This is one part of the list.
Classes used: active, inactive

Molecule: CC[C@H](CCC(C)[C@H]1CCC2C3CCC4C[C@@H](O)CC[C@]4(C)C3CC[C@@]21C)C(C)C (stereo not given in full)
Class label: inactive
//
Molecule: CN(C)C(=O)Nc1ccc(Cl)c(Cl)c1
Class label: inactive
//
Molecule: CN(CCC(N)CC(=O)N[C@H]1C=CC(n2ccc(N)nc2=O)O[C@@H]1C(=O)O)C(=N)N (stereo not given in full)
Class label: active
//
Molecule: CSc1ccc2c(c1)N(CCC1CCCCN1C)c1ccccc1S2 (stereo not given)
Class label: inactive
//
Molecule: CC(=O)Nc1nnc(S(N)(=O)=O)s1
Class label: inactive
//
Molecule: NC(N)=O
Class label: inactive
//
Molecule: N[C@@H]1[C@@H](O)[C@H](O)[C@@H](CO)O[C@H]1O
Class label: inactive
//
Molecule: C[C@@H]1CC2C3C[C@H](F)C4=CC(=O)C=C[C@]4(C)[C@@]3(F)[C@@H](O)C[C@]2(C)[C@@]1(O)C(=O)COC(=O)C(C)(C)C (stereo not given in full)
Class label: inactive
//
Molecule: C[C@@H]1CC2C3CCC4=CC(=O)C=C[C@]4(C)[C@@]3(F)[C@@H](O)C[C@]2(C)[C@H]1C(=O)CO (stereo not given in full)
Class label: inactive
//
Molecule: CC(=O)N=c1sc(S(N)(=O)=O)nn1C
Class label: inactive

----------
test: chemical genetic growth profiling, strain panel (AID 1159580);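 note: tested at 20 µM; growth read once vehicle control cultures reached saturation at 30 °C; lower values mean less growth of the strain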; conditions: S. cerevisiae deletion strains, growth OD, locus YBR279W, strain paf1
Hit rate of the full screen: of about 5,500 compounds, about 2,000 (36%) were called active. Roughly 18% stayed inconclusive and do not appear here. No stated cut-off is given here; in the data, active means normalized growth mostly below about 0.91 (no sharp cut-off); inconclusive means no clear call, values can overlap the other calls; inactive means mostly above about 0.92. The list shows a part of the results.
Classes used: t for active, f for inactive

Compound: COc1cc([C@H]2Oc3cc([C@H]4Oc5cc(O)cc(O)c5C(=O)[C@@H]4O)ccc3O[C@@H]2CO)ccc1O
Class label: f
--
Compound: CN(CCC(N)CC(=O)N[C@H]1C=CC(n2ccc(N)nc2=O)O[C@@H]1C(=O)O)C(=N)N (stereo partly specified)
Class label: t
--
Compound: CCCCC[C@H](CC(=O)NO)C(=O)N[C@H](C(=O)N1CCC[C@H]1CO)C(C)C
Class label: f
--
Compound: CC(=O)Nc1ccccc1
Class label: f
--
Compound: CC1CCC2(OC1)OC1CC3C4CCC5C[C@@H](O)CCC5(C)C4=CCC3(C)C1[C@@H]2C (stereo partly specified)
Class label: f
--
Compound: NS(=O)(=O)c1cc2c(cc1Cl)NC(C1CC3C=CC1C3)NS2(=O)=O (stereo unspecified)
Class label: f
--
Compound: COc1ccc(C(=O)N2CCCC2=O)cc1
Class label: f
--
Compound: N#C/C(=C\c1cccc(O)c1)C(=O)O
Class label: f
--
Compound: O=C(Nc1ccccc1)Nc1ccccc1
Class label: f
--
Compound: CN1CCN(C2=Nc3ccccc3Oc3ccc(Cl)cc32)CC1
Class label: f
--
Compound: Clc1ccc2c(c1)C(N1CCNCC1)=Nc1ccccc1O2
Class label: f
